# Assay comment: Mouse lung tissue binding (equilibrium dialysis, RED)
# Assay type: in vitro ADME
# Conditions used: mouse lung tissue binding, % bound (Table 3)
Measured Mouse LTB % by item
Measurement label: Mouse LTB % (%)

                                    compound  quantitative_result
 0  Cn1cc(NC(=O)c2cnn3cccnc23)c(-c2cc(S(=O)(=O)c3ccn(C)c(=O)c3)ccc2OC(F)F)n1                 86.5
 1  CNCCn1cc(S(=O)(=O)c2ccc(OC(F)F)c(-c3nn(C)cc3NC(=O)c3cnn4cccnc34)c2)cn1                 91.3
 2  Cn1cc(NC(=O)c2cnn3cccnc23)c(-c2cc(S(=O)(=O)N3CCC3)ccc2OC(F)F)n1                   83
 3  CC(CO)S(=O)(=O)c1ccc(OC(F)F)c(-c2nn(C)cc2NC(=O)c2cnn3cccnc23)c1 (single isomer, unassigned) [Example 24]                 81.7
 4  Cn1cc(NC(=O)c2cnn3cccnc23)c(-c2cc(S(=O)(=O)CCCO)ccc2OC(F)F)n1                 80.5
 5  CC(CO)S(=O)(=O)c1ccc(OC(F)F)c(-c2nn(C)cc2NC(=O)c2cnn3cccnc23)c1 (single isomer, unassigned) [Example 23]                 82.1
 6  C[C@H](O)CS(=O)(=O)c1ccc(OC(F)F)c(-c2nn(C)cc2NC(=O)c2cnn3cccnc23)c1 (stereo in doubt)                 85.7
 7  COCCS(=O)(=O)c1ccc(OC(F)F)c(-c2nn(C)cc2NC(=O)c2cnn3cccnc23)c1                 80.1
 8  CNS(=O)(=O)c1ccc(OC(F)F)c(-c2nn(C)cc2NC(=O)c2cnn3cccnc23)c1                 86.9
 9  Cn1cc(NC(=O)c2cnn3cccnc23)c(-c2cc(S(=O)(=O)C3COC3)ccc2OC(F)F)n1                   85
10  N#CCn1cc(NC(=O)c2cnn3cccnc23)c(-c2cc(S(=O)(=O)C3CC3)ccc2OC(F)F)n1                 87.9
11  Cn1cc(NC(=O)c2cnn3cccnc23)c(-c2cc(S(=O)(=O)c3ccccc3)ccc2OC(F)F)n1                 95.6
12  COc1cccc(S(=O)(=O)c2ccc(OC(F)F)c(-c3nn(C)cc3NC(=O)c3cnn4cccnc34)c2)c1                 97.1
13  CC(O)C(C)S(=O)(=O)c1ccc(OC(F)F)c(-c2nn(C)cc2NC(=O)c2cnn3cccnc23)c1 (single isomer, unassigned)                 78.4

src = patent US11453671B2
